Tested on: ATF4 luciferase reporter in HEK293T cells
Assay: ATF4-Luc assay (in vitro model of VWMD)
Format: cell-based, human
Conditions: Homo sapiens, HEK-293T, 7 h, HEK293T cells carrying the ATF4 luciferase reporter, 1 μg/mL tunicamycin, One Glo luminescence
Kindly state EC50 for each of the entries shown.

Look over these answered cases.
>>> value_reported("O=C(NC12CCC(n3cc(OCCOC(F)(F)F)cn3)(C1)C2)[C@H]1C[C@@H](O)c2cc(Cl)ccc2O1")
"0.05 to 0.25 µM"
>>> value_reported("O=C(NC12CC(n3cc(C(=O)N4CC[C@H](COC(F)(F)F)C4)cn3)(C1)C2)[C@H]1C[C@@H](O)c2cc(Cl)ccc2O1")
"0.01 to 0.05 µM"

# evaluate next
ATF4 luciferase reporter in HEK293T cells EC50 of O=C(NC12CC(n3cc(OCCOC(F)(F)F)cn3)(C1)C2)[C@H]1C[C@H](O)c2cc(Cl)c(Cl)cc2O1 is < 0.01 µM
